- Experimental Target: T1, human VLA4-Fc (alpha4-Fc/beta1-Fc heterodimer) (human)
- T1 construct: Soluble heterodimer from CHO cells, Protein A purified; also called VLA-Fc
- T1 sequence (chain, as listed by the source limits assumed, form in doubt, chain 1 of 2): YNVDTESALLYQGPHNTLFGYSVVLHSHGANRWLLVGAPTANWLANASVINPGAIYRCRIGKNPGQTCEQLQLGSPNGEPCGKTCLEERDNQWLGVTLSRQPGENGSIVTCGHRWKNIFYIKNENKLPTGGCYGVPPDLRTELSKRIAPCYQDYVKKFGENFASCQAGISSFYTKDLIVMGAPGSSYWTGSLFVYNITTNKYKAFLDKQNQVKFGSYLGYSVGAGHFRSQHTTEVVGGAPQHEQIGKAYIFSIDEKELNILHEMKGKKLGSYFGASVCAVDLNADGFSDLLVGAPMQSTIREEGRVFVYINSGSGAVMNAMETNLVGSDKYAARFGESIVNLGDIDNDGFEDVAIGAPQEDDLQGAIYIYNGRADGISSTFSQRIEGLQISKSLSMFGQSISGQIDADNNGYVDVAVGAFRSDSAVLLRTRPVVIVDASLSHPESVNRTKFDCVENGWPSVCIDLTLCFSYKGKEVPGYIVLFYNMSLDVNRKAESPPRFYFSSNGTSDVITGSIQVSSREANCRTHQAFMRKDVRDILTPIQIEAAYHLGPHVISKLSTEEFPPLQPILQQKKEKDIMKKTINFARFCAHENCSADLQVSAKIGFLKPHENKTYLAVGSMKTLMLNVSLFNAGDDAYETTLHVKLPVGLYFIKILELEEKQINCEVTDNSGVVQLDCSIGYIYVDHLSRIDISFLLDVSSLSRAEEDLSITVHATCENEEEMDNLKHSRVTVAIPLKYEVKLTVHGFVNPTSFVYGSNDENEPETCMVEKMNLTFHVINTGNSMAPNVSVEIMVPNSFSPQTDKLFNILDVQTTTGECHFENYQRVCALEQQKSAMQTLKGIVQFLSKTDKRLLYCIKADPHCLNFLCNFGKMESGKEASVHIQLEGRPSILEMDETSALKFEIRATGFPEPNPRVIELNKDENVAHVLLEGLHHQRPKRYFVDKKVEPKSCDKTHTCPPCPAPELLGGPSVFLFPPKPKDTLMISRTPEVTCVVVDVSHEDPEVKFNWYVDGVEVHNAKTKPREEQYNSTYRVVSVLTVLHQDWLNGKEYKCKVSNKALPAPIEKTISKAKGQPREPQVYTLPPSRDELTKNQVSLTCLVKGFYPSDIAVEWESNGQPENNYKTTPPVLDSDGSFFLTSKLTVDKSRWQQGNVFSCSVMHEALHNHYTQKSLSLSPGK
- T1 sequence (chain, as listed by the source limits assumed, form in doubt, chain 2 of 2): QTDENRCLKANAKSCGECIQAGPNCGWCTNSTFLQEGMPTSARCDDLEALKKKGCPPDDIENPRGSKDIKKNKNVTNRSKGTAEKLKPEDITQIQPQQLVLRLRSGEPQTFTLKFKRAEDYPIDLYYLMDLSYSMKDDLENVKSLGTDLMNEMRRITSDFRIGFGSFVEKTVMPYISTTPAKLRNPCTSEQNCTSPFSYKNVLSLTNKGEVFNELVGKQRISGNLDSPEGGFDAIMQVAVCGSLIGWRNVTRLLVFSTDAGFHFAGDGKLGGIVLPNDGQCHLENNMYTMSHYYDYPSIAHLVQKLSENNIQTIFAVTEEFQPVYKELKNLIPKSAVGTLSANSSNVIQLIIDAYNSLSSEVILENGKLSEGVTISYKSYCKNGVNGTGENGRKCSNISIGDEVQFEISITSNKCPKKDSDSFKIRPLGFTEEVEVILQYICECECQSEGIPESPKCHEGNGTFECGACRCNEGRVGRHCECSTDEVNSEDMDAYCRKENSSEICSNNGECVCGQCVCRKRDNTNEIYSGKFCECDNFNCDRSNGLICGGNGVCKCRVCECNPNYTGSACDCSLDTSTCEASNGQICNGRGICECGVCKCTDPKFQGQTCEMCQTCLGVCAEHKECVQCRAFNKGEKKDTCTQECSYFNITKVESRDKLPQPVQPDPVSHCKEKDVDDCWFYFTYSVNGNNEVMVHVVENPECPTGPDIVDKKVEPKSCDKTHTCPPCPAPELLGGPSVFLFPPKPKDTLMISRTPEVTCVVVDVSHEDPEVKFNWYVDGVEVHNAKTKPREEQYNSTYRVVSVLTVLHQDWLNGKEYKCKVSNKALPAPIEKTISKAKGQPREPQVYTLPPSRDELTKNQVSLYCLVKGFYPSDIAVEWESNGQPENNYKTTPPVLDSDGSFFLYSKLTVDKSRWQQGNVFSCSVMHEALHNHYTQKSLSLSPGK
- Procedure Text: SPR (BIACORE), crude CHO-S supernatant on VLA4-Fc
fold weaker binding relative to 146R0 (KD(variant)/KD(146R0)) reference
The answer is to be given in fold; state only the numeric part.

{"columns": ["Binder", "Result"],
 "data": [
  ["146R10 (ligand, Crude CHO-S supernatant, 3x spacer-FLAG tagged) FKIETTPESRYLAQIGDSVSLTCSTTGCESPFFFWRPLLDSPLNGKVTNEGTTSTLTMNPVSFGNEHSYLCTATCESRKLEKGIQVEIYSFPKDPEIHLSGPLEAGKPITVKCSVADVYPFDRLEIDLLKGDHLMKSQEFLEDADRKSLETKSLEVTFTPVIEDIGKVLVCRAKLHIDEMDSVPTVRQAVKELQVYISPGGGSDYKDDDDKGGGSDYKDDDDKGGGSDYKDDDDKGS", 2.7],
  ["146R14 (ligand, Crude CHO-S supernatant, 3x spacer-FLAG tagged) FKIETTPESRYLAQIGDSVSLTCSTTGCESPLFFWRPLIDSPLNGKVTNEGTTSTLTMNPVSFGNEHSYLCTARCESRKLEKGIQVEIYSFPKDPEIHLSGPLEAGKPITVKCSVADVYPFDRLEIDLLKGDHLMKSQEFLEDADRKSLETKSLEVTFTPVIEDIGKVLVCRAKLHIDEMDSVPTVRQAVKELQVYISPGGGSDYKDDDDKGGGSDYKDDDDKGGGSDYKDDDDKGS", 1.5],
  ["146R2 (ligand, Crude CHO-S supernatant, 3x spacer-FLAG tagged) FKIETTPESRYLAQIGDSVSLTCSTTGCESPLFSWRPLLDSPLNGKVTNEGTTSTLTMNPVSFGNEHSYLCTARCESRSLEKGIQVEIYSFPKDPEIHLSGPLEAGKPITVKCSVADVYPFDRLEIDLLKGDHLMKSQEFLEDADRKSLETKSLEVTFTPVIEDIGKVLVCRAKLHIDEMDSVPTVRQAVKELQVYISPGGGSDYKDDDDKGGGSDYKDDDDKGGGSDYKDDDDKGS", 2.7],
  ["146R4 (ligand, Crude CHO-S supernatant, 3x spacer-FLAG tagged) FKIETTPESRYLAQIGDSVSLTCSTTGCESPLFFWRPQLDSPLNGKVTNEGTTSTLTMNPVSFGNEHSYLCTARCESRSLEKGIQVEIYSFPKDPEIHLSGPLEAGKPITVKCSVADVYPFDRLEIDLLKGDHLMKSQEFLEDADRKSLETKSLEVTFTPVIEDIGKVLVCRAKLHIDEMDSVPTVRQAVKELQVYISPGGGSDYKDDDDKGGGSDYKDDDDKGGGSDYKDDDDKGS", 2.6],
  ["146R23 (ligand, Crude CHO-S supernatant, 3x spacer-FLAG tagged) FKIETTPESRYLAQIGDSVSLTCSTTGCESPFFFWRTLLDSPLNGKVTNEGTTSTLTMNPVSFGNEHSYLCTARCESRKLEKGIQVEIYSFPKDPEIHLSGPLEAGKPITVKCSVADVYPFDRLEIDLLKGDHLMKSQEFLEDADRKSLETKSLEVTFTPVIEDIGKVLVCRAKLHIDEMDSVPTVRQAVKELQVYISPGGGSDYKDDDDKGGGSDYKDDDDKGGGSDYKDDDDKGS", 6.1]
]}

Continue with the binder presented below.
Entry 146R13 (ligand, Crude CHO-S supernatant, 3x spacer-FLAG tagged) FKIETTPESRYLAQIGDSVSLTCSTTGCESPFFFWRPLLDSPLNGKVTNEGTTSTLTMNPVSFGNEHSYLCTARCESRKLEKGIQVEIYSFPKDPEIHLSGPLEAGKPITVKCSVADVYPFDRLEIDLLKGDHLMKSQEFLEDADRKSLETKSLEVTFTPVIEDIGKVLVCRAKLHIDEMDSVPTVRQAVKELQVYISPGGGSDYKDDDDKGGGSDYKDDDDKGGGSDYKDDDDKGS , fold weaker binding relative to 146R0 (KD(variant)/KD(146R0)) reported as 2.3

Reference for the values: patent US20120135912A1
